// molecules with IC50 on Mast/stem cell growth factor receptor Kit (Homo sapiens), multi-source literature

Illustrative cases are given below, each with its answer.
[[record]]
molecule = "OCc1cccc(-c2c(CNCC(O)c3ccc(O)cc3)[nH]c3ncccc23)c1 (stereo not shown)"
observed_value = "≤ 10 µM"

[[record]]
molecule = "CNc1ncc2c(n1)N1CCN=C1C(c1c(C)ccc(NC(=O)Nc3ccccc3Cl)c1F)=C2"
observed_value = "0.1 to 10 µM"

[[record]]
molecule = "CCCS(=O)(=O)Nc1ccc(F)c(C(=O)c2c[nH]c3ncc(C(=O)NOC)cc23)c1F"
observed_value = "≤ 10 µM"


Cn1cc(-c2cnc3[nH]cc(C(=O)c4cccc(NS(=O)(=O)c5cccc(C(F)(F)F)c5)c4)c3c2)cn1 tested on Mast/stem cell growth factor receptor Kit (Homo sapiens) gave IC50: ≤ 10 µM

Lab note: molecule O=C(Nc1cccc(C(=O)c2c[nH]c3ncccc23)c1)Nc1ccc(F)c(F)c1 tested on Mast/stem cell growth factor receptor Kit (Homo sapiens); recorded IC50 was ≤ 10 µM

// assay Mast/stem cell growth factor receptor Kit (Homo sapiens), entry Cc1ccc(F)cc1C(=O)c1c[nH]c2ncc(-c3cccnc3)cc12 , IC50 value = ≤ 10 µM

# IC50 measured on Mast/stem cell growth factor receptor Kit (Homo sapiens) for item Cc1cc(C)cc(S(=O)(=O)Nc2ccc(F)c(C(=O)c3c[nH]c4ncc(Cl)cc34)c2F)c1 = ≤ 10 µM

Simply: Cc1cc(F)ccc1S(=O)(=O)Nc1ccc(F)c(C(=O)c2c[nH]c3ncc(Cl)cc23)c1F , Mast/stem cell growth factor receptor Kit (Homo sapiens), IC50 = ≤ 10 µM

Form: item O=C(c1c(F)ccc(NS(=O)(=O)c2ccsc2)c1F)c1c[nH]c2ncc(Cl)cc12 ; test system Mast/stem cell growth factor receptor Kit (Homo sapiens); IC50: ≤ 10 µM

Measured on Mast/stem cell growth factor receptor Kit (Homo sapiens), COc1ccc(CNc2ccc(Cc3c[nH]c4nccnc34)cn2)cn1 has a documented IC50 of < 10 µM

Query O=C(c1cccc(NS(=O)(=O)C2CCCCC2)c1)c1c[nH]c2ncc(Cl)cc12 on Mast/stem cell growth factor receptor Kit (Homo sapiens); IC50 returned: ≤ 10 µM

Simply: CCCS(=O)(=O)Nc1ccc(F)c(C(=O)c2c[nH]c3ncc(-c4cnn(CCN5CCOCC5)c4)cc23)c1F , Mast/stem cell growth factor receptor Kit (Homo sapiens), IC50 = ≤ 10 µM
